System: B16F10 mouse melanoma
Assay: In vitro cytotoxicity (MTT), B16F10
Type: cell-based
Settings: B16-F10, 72 h, read-out: In Vitro Cytotoxicity (IC50)
Counter-ions that a name gives are not always drawn.
Consider the following molecules and their measured IC50 readings.
Supply the numeric figure in µg/mL, leaving out any unit text.

## Input Query the reported IC50 for B16F10 mouse melanoma; item: COc1cccc2c1C(=O)c1c(O)c3c(c(O)c1C2=O)C[C@@](O)(C(=O)CO)C[C@@H]3O[C@H]1C[C@H](N)[C@H](O)[C@H](C)O1 [ADR, doxorubicin hydrochloride, reference compound]
## Output 0.005

## Input Query the reported IC50 for B16F10 mouse melanoma; item: CCOC(=O)c1cn2c3c(c(N4CCC(N)C4)c(F)cc3c1=O)Oc1cc3c(cc1-2)OCO3 (centres unmarked) [Example 35]
## Output 0.077

## Input Query the reported IC50 for B16F10 mouse melanoma; item: N[C@@H]1CCN(c2c(F)cc3c(=O)c(C(=O)O)cn4c3c2Oc2ccccc2-4)C1 [Example 17, hydrochloride]
## Output 0.011

## Input Query the reported IC50 for B16F10 mouse melanoma; item: Cc1ccc2c(c1)Oc1c(N3CCC(NC(=O)[C@H](C)N)C3)c(F)cc3c(=O)c(C(=O)O)cn-2c13 (some centres unmarked) [Example 9, hydrochloride]
## Output 0.048

## Input Query the reported IC50 for B16F10 mouse melanoma; item: Cc1ccc2c(c1)Oc1c(N3CC[C@@H](N)C3)c(F)cc3c(=O)c(C(=O)O)cn-2c13 [Example 19, hydrochloride]
## Output 0.049

## Input Query the reported IC50 for B16F10 mouse melanoma; item: NC1CCN(c2c(F)cc3c(=O)c(C(=O)O)cn4c3c2Oc2ccccc2-4)C1 (centres unmarked) [Compound A]
## Output 0.021

## Input Query the reported IC50 for B16F10 mouse melanoma; item: CCC[C@H](N)C(=O)NC1CCN(c2c(F)cc3c(=O)c(C(=O)O)cn4c3c2Oc2cc(C)ccc2-4)C1 (some centres unmarked) [Example 10, hydrochloride]
## Output 0.0573

## Input Query the reported IC50 for B16F10 mouse melanoma; item: Cc1ccc2c(c1)Oc1c(N3CC[C@H](N)C3)c(F)cc3c(=O)c(C(=O)O)cn-2c13 [Example 18, hydrochloride]
## Output 0.024

## Input Query the reported IC50 for B16F10 mouse melanoma; item: CC(C)(C)c1ccc2c(c1)-n1cc(C(=O)O)c(=O)c3cc(F)c(N4CCC(N)C4)c(c31)O2 (centres unmarked) [Example 21, hydrochloride]
## Output 0.045

## Input Query the reported IC50 for B16F10 mouse melanoma; item: NC1CCN(c2c(F)cc3c(=O)c(C(=O)O)cn4c3c2Oc2cc3c(cc2-4)OCO3)C1 (centres unmarked) [Example 32, hydrochloride]
## Output 0.018

## Input Query the reported IC50 for B16F10 mouse melanoma; item: Cc1cc(C)c2c(c1)-n1cc(C(=O)O)c(=O)c3cc(F)c(N4CCC(N)C4)c(c31)O2 (centres unmarked) [Example 15, hydrochloride]
## Output 0.015

## Input Query the reported IC50 for B16F10 mouse melanoma; item: NC1CCN(c2c(F)cc3c(=O)c(C(=O)N4CCOCC4)cn4c3c2Oc2ccccc2-4)C1 (centres unmarked) [Example 29]
## Output 0.56

## Input Query the reported IC50 for B16F10 mouse melanoma; item: NC1CCN(c2c(F)cc3c(=O)c(C(=O)Nc4ccc(F)cc4F)cn4c3c2Oc2ccccc2-4)C1 (centres unmarked) [Example 30, hydrochloride]
## Output 1.3

## Input Query the reported IC50 for B16F10 mouse melanoma; item: Cc1ccc2c(c1)-n1cc(C(=O)O)c(=O)c3cc(F)c(N4CCC(N)C4)c(c31)O2 (centres unmarked) [Example 4, hydrochloride]
## Output 0.0221

## Input Query the reported IC50 for B16F10 mouse melanoma; item: N[C@H]1CCN(c2c(F)cc3c(=O)c(C(=O)O)cn4c3c2Oc2ccccc2-4)C1 [Example 16, hydrochloride]
## Output 0.018

## Input Query the reported IC50 for B16F10 mouse melanoma; item: Cc1ccc2c(c1)Oc1c(N3CCC(N)C3)c(F)cc3c(=O)c(C(=O)O)cn-2c13 (centres unmarked) [Example 6, hydrochloride]
## Output 0.056

## Input Query the reported IC50 for B16F10 mouse melanoma; item: CCC[C@H](N)C(=O)NC1CCN(c2c(F)cc3c(=O)c(C(=O)O)cn4c3c2Oc2ccccc2-4)C1 (some centres unmarked) [Example 8, hydrochloride]
## Output 0.0271
